- System: Microsporum canis
- Assay Method Text: Agar dilution method, growth on Sabouraud dextrose agar slants
- Type: cell-based
- Parameters: key: +++: Maximum Fungal Growth; ++: Moderate Fungal Growth; +: Minimum Fungal Growth; +/−: Very little Fungal Growth; −: No Fungal Growth
- Setup Conditions: 500 μg/ml; 12th day after inoculation

{"columns": ["Compound", "Fungal growth"],
 "data": [
  ["COC1=CC(=O)C[C@@H](C)[C@]12Oc1c(Cl)c(OC)cc(OC)c1C2=O [Griseofulvin, reference compound]", "−"],
  ["C=C(C)C1CCC2(COC(=O)CCC(=O)O)CC[C@@]3(C)C(CCC4[C@@]5(C)CCC(O)C(C)(C)C5CC[C@]43C)C12 (stereo partly drawn) [Betulin-28-succinate]", "+"],
  ["CC1(C)CCC23CC[C@@]4(C)C(CCC5[C@@]6(C)CCC(OC(=O)CCC(=O)O)C(C)(C)C6CC[C@]54C)C2C1OC3 (stereo partly drawn) [Allobetulin-3-succinate]", "−"]
]}

====

- System: Microsporum canis
- Assay Method Text: Direct addition method, solid compound in Sabouraud dextrose agar
- Format: cell-based
- Design: key: +++: Maximum Fungal Growth; ++: Moderate Fungal Growth; +: Minimum Fungal Growth; +/−: Very little Fungal Growth; −: No Fungal Growth
- Setup Conditions: 4 mg/mL of agar; 12th day after inoculation
Experimental Readout: Fungal growth

These recorded examples may help you get a feel for the data.
{"columns": ["Molecule", "Experimental Readout", "Reported Value"],
 "data": [
  ["C=C(C)[C@@H]1CC[C@]2(COC(=O)/C=C\\C(=O)O)CC[C@]3(C)[C@H](CC[C@@H]4[C@@]5(C)CC[C@H](O)C(C)(C)[C@@H]5CC[C@]43C)[C@@H]12 [Betulin-28-maleate]", "Fungal growth", "−"],
  ["C=C(C)C1CCC2(C)CCC3(C)C(CCC4C5(C)CCC(OC(=O)CCC(=O)O)C(C)(C)C5CCC43C)C12 (centres unmarked) [Lupeol-3-succinate]", "Fungal growth", "+"],
  ["C=C(C)[C@@H]1CC[C@]2(CO)CC[C@]3(C)[C@H](CC[C@@H]4[C@@]5(C)CC[C@H](O)C(C)(C)[C@@H]5CC[C@]43C)[C@@H]12", "Fungal growth", "+"],
  ["C=C(C)[C@@H]1CC[C@]2(COC(=O)CCCC(=O)O)CC[C@]3(C)[C@H](CC[C@@H]4[C@@]5(C)CC[C@H](OC(=O)CCCC(=O)O)C(C)(C)[C@@H]5CC[C@]43C)[C@@H]12 [Betulin-3,28-diglutarate]", "Fungal growth", "+"]
]}

Attention now shifts to the item below.
Exercise: Requested read-out: Fungal growth. Entry: CC1(C)CCC23CC[C@@]4(C)C(CCC5[C@@]6(C)CC[C@H](O)C(C)(C)C6CC[C@]54C)C2C1OC3 (some centres unmarked)
Key: ++

====

- System: Epidermophyton floccosum
- Assay Method Text: Agar dilution method, growth on Sabouraud dextrose agar slants
- Assay type: cell-based
- Parameters: key: +++: Maximum Fungal Growth; ++: Moderate Fungal Growth; +: Minimum Fungal Growth; +/−: Very little Fungal Growth; −: No Fungal Growth
- Setup Conditions: 250 μg/ml; 12th day after inoculation

{"columns": ["Molecule", "Fungal growth"],
 "data": [
  ["C[C@@H]1[C@H](O)[C@@H](C)/C=C/C=C/CC/C=C/C=C/C=C/C=C/C(O[C@H]2O[C@H](C)[C@@H](O)[C@H](N)[C@@H]2O)CC2O[C@](O)(CC(O)C(O)CCC(O)CC(O)CC(O)CC(=O)O[C@H]1C)CC(O)C2C(=O)O (stereo partly drawn) [Nystatin, reference compound]", "−"],
  ["COC1=CC(=O)C[C@@H](C)[C@]12Oc1c(Cl)c(OC)cc(OC)c1C2=O [Griseofulvin, reference compound]", "+"],
  ["C=C(C)C1CCC2(CO)CCC3(C)C(CCC4C5(C)CCC(OC(=O)C=CC(=O)O)C(C)(C)C5CCC43C)C12 (stereo not drawn) [Betulin-3-maleate]", "+"]
]}
